# EXPERIMENTAL_SYSTEM: TSPO (Rattus norvegicus, UniProt P16257)
# Construct: from tissue; host or cells: rat cerebral cortex membranes
# MEASUREMENT_NOTES: Radioligand binding assay, displacement of [3H]-PK 11195 from rat cerebral cortex membranes
# CONDITION_PARAMETERS: rat cerebral cortex membranes, [3H]-PK 11195
Measured IC50 by item
Field format: number, assumed nM, no unit text.

CCCN(CCC)C(=O)Cc1c(-c2ccc(Cl)cc2)nc2c(NC(=O)CNC(=O)C(CCC(=O)O)NC(=O)c3ccc(N(C)Cc4cnc5nc(N)nc(N)c5n4)cc3)cccn12 (centres unmarked)    7.2

[Q] Which IC50 reading was recorded for the molecule CCCN(CCC)C(=O)Cc1c(-c2ccc(Cl)cc2)nc2c(NC(=O)CNC(=O)CCC(NC(=O)c3ccc(N(C)Cc4cnc5nc(N)nc(N)c5n4)cc3)C(=O)O)cccn12 (centres unmarked) ?
[A] 40.3
